The measured values listed here are drawn from the supplement of paper PMC13380429.

Test system: Vero E6 infected with SARS-CoV-2
experiment.notes: inhibition of SARS-CoV-2 cytopathic effect; higher = more antiviral protection, active = above 15
measurement.conditions: 8.33 nM; 48 h
Could you please report measured inhibition of SARS-CoV-2 cytopathic effect for the items listed next?
Numbers only, in %.

| molecule | experimental.system | value.observed |
| --- | --- | --- |
| CCN1CCN(Cc2ccc(C(=O)Nc3ccc(C)c(Oc4ccc5c(c4)CC(=O)N5)c3)cc2C(F)(F)F)CC1 | Vero E6 infected with SARS-CoV-2 | -1.24 |
| O=C(OCCO)c1ccccc1O [2-hydroxyethyl-salicylate] | Vero E6 infected with SARS-CoV-2 | 1.56 |
| Cc1cc(O)c(C(=O)N[C@@H](C(=O)N[C@@H]2C(=O)N3C(C(=O)O)=C(CSc4nnnn4C)CS[C@H]23)c2ccc(O)cc2)cn1 [cefpiramide] | Vero E6 infected with SARS-CoV-2 | -0.72 |
| COc1ccc(CNC(=O)Nc2ncc([N+](=O)[O-])s2)cc1 | Vero E6 infected with SARS-CoV-2 | 2.48 |

# return inhibition of SARS-CoV-2 cytopathic effect for each item in the list
1. COc1ccc2c3c1O[C@H]1C[C@@H](O)C=C[C@@]31CCN(C)C2 [galantamine]
2. O=C(Cc1ccc(-c2ccc(OCCN3CCOCC3)cc2)cn1)NCc1ccccc1
3. CCCCC(CC)COc1ccc(-c2nc(-c3ccc(OC)cc3)nc(-c3ccc(OCC(CC)CCCC)cc3O)n2)c(O)c1 (stereo unspecified) [bemotrizinol]
4. O=Nc1c(-c2c(O)[nH]c3ccccc23)[nH]c2ccccc12 [indirubin-3-monoxime]
5. C/C=C1\NC(=O)[C@H]2CSSCC/C=C/[C@H](CC(=O)N[C@H](C(C)C)C(=O)N2)OC(=O)[C@H](C(C)C)NC1=O [romidepsin]
6. Cc1ccc2c(N3CCN(CCc4cccc(N5CCNC5=O)c4)CC3)cccc2n1
7. O[C@H]1CC[C@H](Nc2ncc3nc(Nc4c(F)cc(F)cc4F)n([C@H]4CCOC4)c3n2)CC1
8. CCN(C(C)=O)c1cccc(-c2ccnc3c(C#N)cnn23)c1

[3.15, 0.24, 3.46, 0.8, 0.79, -3.04, 2.79, -1.57]

Record inhibition of SARS-CoV-2 cytopathic effect for all entries; do not skip any.
1. O=C1[C@@H]2[C@H]3CC[C@H](C3)[C@@H]2C(=O)N1C[C@@H]1CCCC[C@H]1CN1CCN(c2nsc3ccccc23)CC1 [lurasidone]
2. C=CCN1CCc2cc(O)c(O)cc2[C@H](c2ccccc2)C1
3. O=C(OOC(=O)c1ccccc1)c1ccccc1 [benzoyl-peroxide]

[0.05, 0.58, 2.38]
